Tested on: α- and β-isoforms of human estrogen receptor
Test: Antiestrogenic activity: ERE-luciferase reporter in HeLa cells transfected with hERα or hERβ, with 17β-estradiol
Type: cell-based
Conditions: compound 0.1 μM; relative luminescence for β-isoform divided by that for α-isoform; 17β-estradiol 100 pM (α), 1 nM (β)
valueKind: Antiestrogenic activity (β/α)
Give a plain numeric answer without units written out.

Look up Antiestrogenic activity (β/α) for this molecule: Cc1cc(C(c2cccc(OCCN(C)C)c2)c2cc(C)c(O)c(C)c2C)c(C)c(C)c1O [Compound 3]
2.6

Look up Antiestrogenic activity (β/α) for this molecule: Cc1cc(C(c2ccc(OCCN(C)C)cc2)c2cc(C)c(O)cc2C)c(C)cc1O [Compound 1]
5.2

Look up Antiestrogenic activity (β/α) for this molecule: Cc1cc(C(c2ccc(OCCN(C)C)cc2)c2cc(C)c(O)c(C)c2)cc(C)c1O [Compound 4]
1.5

Look up Antiestrogenic activity (β/α) for this molecule: Cc1cc(C(c2cccc(OCCN(C)C)c2)c2cc(C)c(O)cc2C)c(C)cc1O [Compound 2]
19

FYI, the data here is from patent US20020156301A1.
